SYSTEM: PCP receptors
PROTOCOL_DESCRIPTION: Tritiated TCP binding, designated RBS1
Procedure: Tritiated TCP binding, designated RBS1, was carried out essentially as described in J Pharmacol Exp Ther, 238, 739-748 (1986).
READOUT_KIND: IC50 (nM)
Numbers only, in nM.

Query c1csc(C2(N3CCCCC3)CCCCC2)c1 [TCP, 1-[1-(2-thienyl)cyclohexyl]piperidine] yields IC50 of 9

Every entry's value here was drawn from patent US4960815A.
